# credit: ChEMBL document CHEMBL5108078

# Measurement Description: Cytotoxicity against human HEK293 cells assessed as cell viability at 50 ug/ml after 24 hrs by CCK8 assay
# Type: toxicity, cell-based
# Measurement Conditions: at 50 µg/mL, read-out: Activity
Readout Kind: viability at 24 h, 50 ug/ml (%)
Give bare numbers, in %.

INPUT: Fill in viability at 24 h, 50 ug/ml for record `COC(=O)[C@H](CCCNC(=N)N)NC(=O)COc1ccc(C(C)(C)CC(C)(C)C)cc1Sc1cc(C(C)(C)CC(C)(C)C)ccc1OCC(=O)N[C@@H](CCCNC(=N)N)C(=O)OC`
OUTPUT: 55.9

====

# Test system: Staphylococcus aureus
# Measurement Description: Antibacterial activity against methicillin resistant Staphylococcus aureus NCTC10442 assessed as inhibition of bacterial growth incubated for 24 hrs by microbroth dilution method
# Type: functional
Record form. Attribute: MIC. Fill in for each entry.
One number for each entry, in µg/mL.

Some solved cases for reference:
COC(=O)[C@H](CCCNC(=N)N)NC(=O)COc1ccc(Cl)cc1Sc1cc(Cl)ccc1OCC(=O)N[C@@H](CCCNC(=N)N)C(=O)OC | 12.5
COC(=O)[C@H](CCCNC(=N)N)NC(=O)[C@H](CCCNC(=N)N)NC(=O)[C@H](CCCNC(=N)N)NC(=O)COc1ccc(C(C)(C)CC(C)(C)C)cc1Sc1cc(C(C)(C)CC(C)(C)C)ccc1OCC(=O)N[C@@H](CCCNC(=N)N)C(=O)N[C@@H](CCCNC(=N)N)C(=O)N[C@@H](CCCNC(=N)N)C(=O)OC | 3.12
COC(=O)[C@H](CCCCN)NC(=O)COc1ccc(C(C)(C)CC(C)(C)C)cc1Sc1cc(C(C)(C)CC(C)(C)C)ccc1OCC(=O)N[C@@H](CCCCN)C(=O)OC | 3.12
CN[C@H](CC(C)C)C(=O)N[C@H]1C(=O)N[C@@H](CC(N)=O)C(=O)N[C@H]2C(=O)N[C@H]3C(=O)N[C@H](C(=O)N[C@H](C(=O)O)c4cc(O)cc(O)c4-c4cc3ccc4O)[C@H](O)c3ccc(c(Cl)c3)Oc3cc2cc(c3O[C@@H]2O[C@H](CO)[C@@H](O)[C@H](O)[C@H]2O[C@H]2C[C@](C)(N)[C@H](O)[C@H](C)O2)Oc2ccc(cc2Cl)[C@H]1O [VANCOMYCIN] | 0.78
CC(C)(C)CC(C)(C)c1ccc(OCC(=O)N[C@@H](CCCNC(=N)N)C(N)=O)c(Sc2cc(C(C)(C)CC(C)(C)C)ccc2OCC(=O)N[C@@H](CCCNC(=N)N)C(N)=O)c1 | 3.12

Look up MIC for the entries below, preserving their order.
1. COC(=O)[C@H](CCCNC(=N)N)NC(=O)COc1c(Sc2cc(C)cc(C(C)(C)C)c2OCC(=O)N[C@@H](CCCNC(=N)N)C(=O)OC)cc(C)cc1C(C)(C)C
2. CN1CCN(CCCCOc2ccc(C(C)(C)CC(C)(C)C)cc2Sc2cc(C(C)(C)CC(C)(C)C)ccc2OCCCCN2CCN(C)CC2)CC1
3. COC(=O)[C@H](CCCNC(=N)N)NC(=O)[C@H](CCCNC(=N)N)NC(=O)COc1ccc(C(C)(C)CC(C)(C)C)cc1Sc1cc(C(C)(C)CC(C)(C)C)ccc1OCC(=O)N[C@@H](CCCNC(=N)N)C(=O)N[C@@H](CCCNC(=N)N)C(=O)OC
4. CC(C)(C)CC(C)(C)c1ccc(OCC(=O)N[C@@H](CCCNC(=N)N)C(=O)N[C@@H](CCCNC(=N)N)C(N)=O)c(Sc2cc(C(C)(C)CC(C)(C)C)ccc2OCC(=O)N[C@@H](CCCNC(=N)N)C(=O)N[C@@H](CCCNC(=N)N)C(N)=O)c1

OUTPUT:
1. 3.12
2. 12.5
3. 3.12
4. 6.25
